Where do these numbers come from? They come from patent US12378261B2.

Assign Extinction Coefficient to each entry below.
assay: Optical properties (absorbance, fluorescence emission, quantum yield); type: physicochemical

Some solved entries appear below for comparison.
compound: CC1=CC(C)=[O+][B-](F)(F)O1
meas_value: 9,180 cm^−1M^−1

compound: COc1cc(/C=C/C2=CC(/C=C/c3ccc(O)c(OC)c3)=[O+][B-](F)(F)O2)ccc1O
meas_value: 73,000 cm^−1M^−1

compound: COc1cc(/C=C/C2=CC(/C=C/c3ccc(OC(=O)CCN4C(=O)C=CC4=O)c(OC)c3)=[O+][B-](F)(F)O2)ccc1OC(=O)CCN1C(=O)C=CC1=O
meas_value: 54,000 cm^−1M^−1

compound: CCOC(=O)CCC1=C(C)O[B-](F)(F)[O+]=C1C
meas_value: 12,600 cm^−1M^−1

compound: CC1=CC(c2ccccc2)=[O+][B-](F)(F)O1
meas_value: 19,800 cm^−1M^−1

List Extinction Coefficient for every entry below, keeping the order given.
1. COc1cc(/C=C/C(=O)CC(=O)/C=C/c2ccc(O)c(OC)c2)ccc1O [Curcumin, reference compound]
2. F[B-]1(F)OC(c2ccccc2)=CC(c2ccccc2)=[O+]1
3. CC1=[O+][B-](F)(F)OC(C)=C1C
4. CC1=C2CCCCC2=[O+][B-](F)(F)O1
5. COc1ccc(C2=CC(c3ccc(C(C)(C)C)cc3)=[O+][B-](F)(F)O2)cc1
6. COc1cc(/C=C/C2=CC(/C=C/c3ccc(OC(=O)c4c(F)cc(F)cc4F)c(OC)c3)=[O+][B-](F)(F)O2)ccc1OC(=O)c1c(F)cc(F)cc1F

1. 56,500 cm^−1M^−1
2. 38,000 cm^−1M^−1
3. 12,200 cm^−1M^−1
4. 12,000 cm^−1M^−1
5. 62,000 cm^−1M^−1
6. 50,800 cm^−1M^−1

State the recorded Extinction Coefficient for every item in the following list.
1. COc1ccc(C2=CC(c3ccc(OC)cc3)=[O+][B-](F)(F)O2)cc1
2. CCC1=C(C)O[B-](F)(F)[O+]=C1C

["63,600 cm^−1M^−1", "12,000 cm^−1M^−1"]

----------
system: A549; assay: Inhibition of cell proliferation (IC50, MTS); type: cell-based; settings: A549, 48 h
experimental_readout: IC50
Enter the number, and then the unit.

// lookup IC50 for COc1cc(/C=C/C2=CC(/C=C/c3ccc(O)c(OC)c3)=[O+][B-](F)(F)O2)ccc1O
5.5 µM

----------
tested on: HCT116; experiment: Inhibition of cell proliferation (IC50, MTS); format: cell-based; conditions: Homo sapiens, HCT-116; HCT116, 24 h
experimental_readout: pIC50
Give bare numbers, as −log10 of the molar value.

What measured pIC50 goes with COc1cc(/C=C/C(=O)CC(=O)/C=C/c2ccc(O)c(OC)c2)ccc1O [Curcumin, reference compound] ?
4.57

----------
What Em was measured for each of the following?
experiment: Optical properties (absorbance, fluorescence emission, quantum yield); format: physicochemical
Record the result as a number with its unit.

Example results:
structure_notation: CC1=C2CCCCC2=[O+][B-](F)(F)O1
Em: 307 nm
--
structure_notation: COc1cc(/C=C/C2=CC(/C=C/c3ccc(OC(=O)CCN4C(=O)C=CC4=O)c(OC)c3)=[O+][B-](F)(F)O2)ccc1OC(=O)CCN1C(=O)C=CC1=O
Em: 509 nm
--
structure_notation: COc1ccc(C2=CC(c3ccc(C(C)(C)C)cc3)=[O+][B-](F)(F)O2)cc1
Em: 439 nm

# context switch: different compound, same Em
Which value of Em has been reported for CC1=CC(C)=[O+][B-](F)(F)O1 in the records?
305 nm
